test system: MS2 coat protein; assay: apparent Kd, MS2 coat protein; higher = weaker binding; RNA-MaP array; details: ligand present: flavin mononucleotide; designed as: OFF switch for flavin mononucleotide
Quick list: apparent Kd per entry.
PROPERTY MEASURED: apparent Kd (nM)

GAAAUAGUAGUUAGGAUAUGUAAUUGAAGACAUAUACAGAAGGAACAUGAGGAUCACCCAUGUAUUGGGAUGGA	126
UGACUCUCUGUCAGGAUAUAACAAGCUACAGUUUAUUAGAAGGGACAUGAGGAUCACCCAUGUUGAACACCCGA	7.98
AACAAACAUGAGGAUCACCCAUGUGAGGAUAUCAAGUCCAUACCCUAAGAGGGAGUUUUGAGAAGGCACGUGUA	15.1
CAUAUCAAUUCAGGAUAUUCUGUUUAAUACAUGAGGAUCACCCAUGUCCUCCAAAGAUUAGCAAGGAAGAAGGGAAGUAAACAG	69

----------
tested on: MS2 coat protein; experiment: apparent Kd, MS2 coat protein; higher = weaker binding; RNA-MaP array; conditions: designed as: ON switch for tryptophan; no ligand
PROPERTY MEASURED: apparent Kd (nM)

UAGGACAUGAGGAUCACCCAUGUUGUACGGCGAGGACCGGUACGGCCGCCACUCGAGGCGUAAGUAGUAAAGAAUCUGAUUCAAU	21.4
GCAGACAUGAGGAUCACCCAUGUACUUGGGCGAGGACCGGUACGGCCGCCACUCGUAGACUUGACGAGGAAAUGUUCUCGCAGGG	22.4
CAAGACAUGAGGAUCACCCAUGUGGUGUACCGAGGACCGGUACGGCCGCCACUCGUUCAUCGGUCGACAAGCUACCCUUCAAGGU	24.2
CAUGACAUGAGGAUCACCCAUGUAUCCAGUCGAGGACCGGUACGGCCGCCACUCGGUGCCUUCAAAUUUACAGACAGGUGACAGG	33.7
GGGCACAUGAGGAUCACCCAUGUCCAACGGCGAGGACCGGUACGGCCGCCACUCGGUAUAAGCUUCGAAAAGGAGGAUCCUGCAG	38.4
GUUUACAUGAGGAUCACCCAUGUCGCCGGCCGAGGACCGGUACGGCCGCCACUCGUCCUAAUGGCACUUGACUUCCCUAUUAAGU	20.3

----------
tested on: MS2 coat protein; experiment: apparent Kd, MS2 coat protein; higher = weaker binding; RNA-MaP array; tryptophan 2.4 mM where present; conditions: designed as: OFF switch for tryptophan; no ligand
PROPERTY MEASURED: apparent Kd (nM)

AUAAUGAGUGGUGGAUAGGUGAUCCUCUUACGAGGACCGGUACGGCCGCCACUCGAUAACAUGAGGAUCACCCAUGUAAUAAUAA	15.7
UCGUUUUAGUCGGCCGCCACUGAACUCAUGUUCAACAUGAGGAUCACCCAUGUACCUUAUUUUAACAGGACCGGGACGUAAUAGA	123
AGCCGCGUUCUUUCUUUCUUUCUAGCGGCACGAGGACCGGUACGGCCGCCACUCGCCCACAUGAGGAUCACCCAUGUAGUGGGUG	18.8
UGCAUGAGGAUCGCCCGUGUCGAGCCGGUGCGAGGACCGGUACGGCCGCCACUCGAGACAUGAGGAUCACCCAUGUUGUGCGUGA	56.5
AGACUUCGCAUAGGAAAACUAUGUGAAGUCCGAGGACCGGUACGGCCGCCACUCGUCCUCAACAUGAGGAUCACCCAUGUAAUAA	21.5
AGAUUCGACACGGCCGCCACUUGUGGUGGAUUAUCCAGUGUCGAACAUGAGGAUCACCCAUGUACAAGGACCGGGUGUUGAGUCU	90.4
GUCCUAAGGUCGGCCGCCACUGUAGAGUGUGAGCCAUCACAUGAGGAUCACCCAUGUUGUUGCUAUAGGACCGGGAUUGUAGGAC	12
UACUUGCUGACGGCCGCCACUAGAACAUGAGGAUCACCCAUGUAAGUGGUUGGUUCAUGGGUGACUAGGACCGGGUCAGCAAGAU	32.3
GAUAUGGAAACAUGUCAGAUCCUUACCGGUCGAGGACCGGUACGGCCGCCACUCGCAAAUAUUGUACAUGAGGAUCACCCAUGUA	13.1
UUAUAAGUACCGGUCCUCAGAUCCUCAUGACGAGGACCGGUACGGCCGCCACUCGAAACAUGAGGAUCACCCAUGUAAUAAUACC	37.5
CUGCUACAUACGGCCGCCACUUUAAACAUGAGGAUCACCCAUGUACGGAAGGGUGGUAAAUGUUAAAGGACCGGGUAUGUAGCAA	176
UGCUAGUGAUCGGCCGCCACUGGCACCUUGAGGAUCCUGCUAAAGUACAUGAGGAUCACCCAUGUCAGGACCGGGAUCAUCAGUG	10.4
CCAUAAGUACCGGUCCUCAGAUCCUCAUGACGAGGACCGGUACGGCCGCCACUCGAAACAUGAGGAUCACCCAUGUAAUAAUAUC	30.6
CGACACAUGAGGAUCACCCAUGUAAUGACGCGAGGACCGGUACGGCCGCCACUCGCAUGCCAAUGAGCGCAUGCGGCCUGGGUAU	18.1

----------
test system: MS2 coat protein; assay: apparent Kd, MS2 coat protein; higher = weaker binding; RNA-MaP array; FMN 200 µM where present; conditions: ligand present: flavin mononucleotide; designed as: ON switch for flavin mononucleotide
Quick list: apparent Kd per entry.
PROPERTY MEASURED: apparent Kd

GUAGCUAUCGGAGGAUAUUCAUAGCGGAAACGGACAUGAGGAUCACCCAUGUGGCUAAAGCCUUGGGAGAAGGCCGAUAGCUAC	6.64 nM
UGUUGUAUUACAGGAUAUCUAUUGUUUUUAAUUAGAGAAGGGUAUUCACAUGAGGAUCACCCAUGUAUAUACGAGGAAGUUGUG	53.4 nM
CCACGAGACUAAGGAUAUGGAGUGUCAACAUAAAACAUGAGGAUCACCCAUGUAAAGAGUACAAUUCAGAAGGUAGAGACGUGG	21.5 nM
UCAUUUAUUACAGGAUAUGUUAGUAUACAGUUGUUUGGUUAUUACAUAUUAACAGAAGGGUAGAACAUGAGGAUCACCCAUGUA	52.3 nM
CGCUGUCACGCAGGAUAUGCAUUGGAUUACAAUGCAGAAGGGCGAUUACAUGAGGAUCACCCAUGUGUAGACAGUGAAGAAGAG	42.3 nM
UAAAUACAUGAGGAUCACCCAUGUCAAAAGACAUGAGGAUAUGUACAGUCUUCGGUCUGUACAGAAGGCAUGAAUA	35 nM
GGGUACAUCGGAGGAUAUCAUGUAGACACAUGAGGAUCACCCAUGUCGAUGGAGACAUCGGAGAUUGAGAAGGCCGAUGUACCG	23.9 nM
GUAGCAUACCGAGGAUAUUCAUAUAAUAAAUAAACAUGAGGAUCACCCAUGUGGCGAAAGCCUUGGGAGAAGGCGGAAUGCUAC	37.3 nM
GACAUACAUGAGGAUCACCCAUGUACAAACGUACAAGGAUAUGUGUGGAAACCGUACUAUACAGAAGGUGUUUGUC	41.5 nM
AAACACGGACAUGAGGAUCACCCAUGUGGCGAAAGCCUAGGGAGAAGGCAGUAUGCAAAGCAUUCUGAGGAUAUUCAUACCGUG	13.4 nM
GCGAUUGCGUAGAAGGUACAAUAUAUUUCAUUGUAAGGAUAUACUUACAUGAGGAUCACCCAUGUUAAUGGAAUUUGCAAUCGC	28.9 nM
ACAUGAGGAUCACCCAUGUGUGCAUAGGAUAUUGAGGAUUUGGGAUGUUUUUUUGGAUUUGCCCACAAGAAGGAUGAAAGUGUU	11.3 nM
CGACAGUACACAGGAUAUCCUCGACUUUGUCGAGGAGAAGGGUGUAAACAUGAGGAUCACCCAUGUAUACUGUCGAAAUAUAAU	38.7 nM
GUCAUCGCAUGAGGAUAUGGCACCGUUUCGGUGCCAGAAGGCAUGUCAAAUGACAUGAGGAUCACCCAUGUAGUUAAGAUGGCA	17 nM
UCAACCGGCGCCGGUUGAACAUGAGGAUCACCCAUGUACUCCAGAAGGCCGCCCAAGAACGGAGUGGAGGAUAUGGAAGUUCUC	30.1 nM
ACCCGGGCUAACAUGAGGAUCACCCAUGUGUUAUACUUAAUAUAGGAUAUGUUUAUACUUUUUGGGCAGAAGGAUGGCCCGGGU	62.5 nM

----------
Quick list: apparent Kd per entry.
system: MS2 coat protein; experiment: apparent Kd, MS2 coat protein; higher = weaker binding; RNA-MaP array; details: designed as: ON switch for flavin mononucleotide; no ligand
PROPERTY MEASURED: apparent Kd (nM)

GCAUAAGAUCAGAAGGGUAAUUUGUAACAACAUACAGGAUAUGAGGAAACAUGAGGAUCACCCAUGUGAAGCGAAAACAGAAAU	15.5
GCUCUACAGGAGAAGGUCAUAUCAUCGGUUAUUGAAGGAUAUCCUCAAGGGACGCUGAGGCGUACAUGAGGAUCACCCAUGUCC	84.1
UCCCGAAAGAAGAAGGGUACACCGAGCUGGUAACACAGCAAAACAUGAGGAUCACCCAUGUCUGAACAGGAUAUUCCGCGAGUA	31.9
AUUAAGUCGACAGGAUAUCCGUACUUUGAGUAAGGAGAAGGGUCUACAAAGGUACAUGAGGAUCACCCAUGUGACUUGGCCGUC	10.1
CGAUACCAUGGUCAGGAUAUGAAACAGCUGACAUGAGGAUCACCCAUGUGAUAGGCAGGUGGACUUCAGAAGGGACACAUACACCA	184
CGCAGACUGUUAGGAUAUGAUACUAACAUGAGGAUCACCCAUGUUUACUCAGUGGAUAAGCAGAGUCAGAAGGAACAUUACGCA	12.2
UGAUUAUACUUUGAGGAUAUACUAGGACUCACAUGAGGAUCACCCAUGUGUGCGGCUAUACGAGCGUAGAAGGCAAAUACUCCGGC	9.31
AAGCCACAUGAGGAUCACCCAUGUAAGGGUACCUGAGGAUAUCCGGCGGGACAGAAAGGAGGAGAAGGCAGAUCCA	50.2
GAUGAGCGCACGGGAAUAAACAUGAGGAUCACCCAUGUCGUUAGAAGGGUAUUCGCCGGGACCAUACAGGAUAUAACGCGUCAC	25.7
AGCACGAGCGCAGGAUAUGCAUAACCCGUAGCUGCAGAAGGGCGACAUGAGGAUCACCCAUGUAUAUCCAGAACUACAAUCUGA	35.8
GAUAUACAUGAGGAUCACCCAUGUCCAAAUUAAGUUUUAGUAUAGGAUAUUGACCGCUAGGAUGUCAAGAAGGAUACCCGAGGU	14.8
CGACUCCCAGAGAAGGCCGCAAACAUGAGGAUCACCCAUGUACUACCUGAGUCUCGGGCGGUACCGGAGGAUAUCUAGGCUCGC	26.6
CGAGUUUGCAAAGGAUAUCGGUUUUGAACAGACCGAGAAGGUUGACUGUACAUGAGGAUCACCCAUGUGUGCUCGAUAUAAAGA	7.72
GUGACUAAAUGCAAGGAUAUCCGCGGCGGUACAUGAGGAUCACCCAUGUCAAGAGUCCACUGGCAGGAGAAGGUGCCCUGCGUCAU	7.57
AAAAGGUCCGCUACAUGAGGAUCACCCAUGUAAAGGGUAAAUCAGGAUAUGGACGGGAGUCUUAACCAGAAGGGAUUACAGGUC	31.6
GAAUUAGUGUUGGAGGAUAUCCCAUGUCUUACAUGAGGAUCACCCAUGUCCGGACAACGACAAAAGGAGAAGGCCAUCAUCAUGUC	772
UGCUUUUACGGAGGAUAUCUUUGGUCGUUAUGAAGAGAAGGCCGUCCUAACAUGAGGAUCACCCAUGUAUCUCAUUACAGUCUC	22.9
AUGCCACCAUACCGCAGUAAUACAUGAGGAUCACCCAUGUAGGAGGAUAUACUUUUGGUAAUGAUGUAGAAGGCCUAGUGGUAC	5.91
GCGUGACAUGAGGAUCACCCAUGUAGACUUGUGGAAGGAUAUACGAGAGUUCGAGUUAAGGUAGAAGGUCCCGAUG	41.3
AGUAGGCAUUCAGGAUAUGGGGAUUUCUCACUGCCACAUGAGGAUCACCCAUGUGGAAGGUACACCCAGAAGGGAAAGUGGUUA	17
CGUUACAUAGAGAAGGUUCAUAAGAUCAAAUAACAUGAGGAUCACCCAUGUAUGUAAGCAUGAGGAAAGGAUAUCUACCGCCAG	144
UCCCGACAUGAGGAUCACCCAUGUGGACAGUACACAGGAUAUUAACUCAUUACAAUAGAAUAAGAAGGGUGGUACC	69.1
CCAUUGCAUGGAGGAUAUGAGCAGUAAGUACUCUCAGAAGGCCACGGAGUAAACAAACCAUCUUACAUGAGGAUCACCCAUGUA	13
AUUGACUCAGAGAAGGGACUCAACAUGAGGAUCACCCAUGUUCUUUCGAAUAAAGGCUCUUAGGGUCAGGAUAUCUGUACGUAA	9.6
GAACACCAGAAGAAGGGAGACAUGAGGAUCACCCAUGUUUAAAUACGAAAUAAGGUAAAAGCAACACAGGAUAUUCGGCUCUAC	22.6
ACAGCAAACGUAGGAUAUGGGAGAACAUGAGGAUCACCCAUGUGGAAGUACGAGUUCGCUACAUACCAGAAGGACGAAAUCUAC	156
UUAAUUCAGUGCCACAUGAGGAUCACCCAUGUCCAUACUCAAAAGGAUAUAUGCGGUUUCUAAGUAUAGAAGGUUUGUACACGA	130
UGACUGUCGAAAGGAUAUGGUCGCACGCACACAUCAGUGUUUCACAUGAGGAUCACCCAUGUGGUCCAGAAGGUUCAUAAAUAU	197
